# Target Or System: human CaMKIIδ (Homo sapiens)
# Construct: Full-length, glutathione-S-transferase(GST)-tagged, human CaMKIIδ was purchased from Carna Biosciences; purchased Carna Biosciences (CaMKIIδ); Wako Pure Chemical Industries (calmodulin) 02-111
# Test Name: Evaluation of in vitro CaMKII inhibitory activity (binding assay, TR-FRET)
# Experimental Conditions: in vitro CaMKII inhibitory activity (binding assay), human CaMKIIδ; read-out: Act
# Protocol: Evaluation of In Vitro CaMKII Inhibitory Activity (Binding Assay) In vitro CaMKIIδ inhibitory activity was evaluated by a binding assay. Full-length bovine calmodulin was purchased from Wako Pure Chemical Industries (Osaka, Japan). […] Time-resolved fluorescence resonance energy transfer (TR-FRET) assay […] The half maximal inhibitory concentration (IC50) of test compounds was calculated by fitting the data with the logistic equation using XLfit (IDBS, Guildford, UK).
Let's look at some compounds and their measured IC50.

Take a look at these entries with their results.
COC(=O)c1sccc1-c1cnc2ccc(-c3ccc(F)c(O[C@@H](C)Cn4cnnn4)c3)nn12 [compound 238]; 10 to 100 nM
C[C@@H](Cn1cnnn1)Oc1cccc(-c2ccc3ncc(-c4ccccc4C=O)n3n2)c1 [compound 303]; < 10 nM
C[C@@H](Cn1cnnn1)Oc1cc(-c2ccc3ncc(-c4nccc(NC(=O)OC(C)(C)C)c4C#N)n3n2)ccc1F [compound 231]; < 10 nM
C[C@@H](Cn1cnnn1)Oc1cccc(-c2ccc3nnc(-c4ccccc4C#N)n3n2)c1 [compound 373]; > 100 nM
C[C@@H](Cn1cnnn1)Oc1cnnc(-c2ccc3ncc(-c4cc(F)ccc4C#N)n3n2)c1 [Example 298]; 10 to 100 nM
C[C@@H](Cn1cnnn1)Oc1cc(-c2ccc3ncc(-c4cn(C)nc4C(F)(F)F)n3n2)ccc1F [compound 265]; 10 to 100 nM

From here, focus on the item given below.
Find the recorded IC50 belonging to C[C@@H](Cn1cnnn1)Oc1cccc(-c2ccn3ncc(-c4ncccc4C#N)c3n2)c1 [compound 304] and report it.
< 10 nM
